Overview of reported protein stability index across a group of sequences:
Test: protein stability index of a GFP-peptide fusion (yeast GPS) (PSI 1-4); higher = more stable; sorted into four equal gates, so the index is relative within each strain
Conditions: san1∆

Entry KENELLFGEKSILGKFC [YCS4] — recorded protein stability index = 1.59

---

Overview of reported protein stability index across a group of sequences:
Experiment: protein stability index of a GFP-peptide fusion (yeast GPS) (PSI 1-4); higher = more stable; sorted into four equal gates, so the index is relative within each strain
Details: pdr5∆
# respond with the number and nothing more

# example entries with known answers
KDLVKNNVSFNAKDIQI [FAS1]
2.62
NRMQISPDQMRNLQMGL [GRR1]
3.18
KGKKYQPKDLRAKKTRA [RPL35A]
2.98
LVVRFTNKDIICQIISS [RPL5]
1.79
LPTPTPTEMEPDLDTEC [SWI1]
3.09
EYLTLNDFNDLNIDWST [MED2]
2.92
FETFLVDVNNKFIALCE [SIN4]
3.05
SSLHSPTSDEPVPESAG [SRB4]
3.16

Entry MENILQRCKSNAISLQL [YIL149C/MLP2] — recorded protein stability index = 2

Entry EDEDEDDETPSCEVEEI [SNU114] — recorded protein stability index = 2.22

Entry VCIRPSVMMQDSPASNE [RPO31] — recorded protein stability index = 2.08

Entry VETNTTVLADEFIAHRL [RPB3] — recorded protein stability index = 3.18

Entry LGNDIPHDLIIGTADIF [BRR2] — recorded protein stability index = 2.76

Entry LIIQYPPNNARRTYNTL [ISW2] — recorded protein stability index = 2.49

Entry NLSRYPKSGIDIFVYLT [MTR3] — recorded protein stability index = 1.97

---

Assay: protein stability index of a GFP-peptide fusion (yeast GPS) (PSI 1-4); higher = more stable; sorted into four equal gates, so the index is relative within each strain
Settings: ubr1∆
Response field class: enum, chosen by comparing protein stability index against lower level = under 2, middle level = from 2 up to 3, upper level = 3 and over

LLRPSSKVIIKFLQVMQ [RPS22B]
lower level

Exercise: # bin lookup: classify KVKNQGADVTNTTQDNG [YCS4] by its protein stability index
Solution: upper level

Exercise: # bin lookup: classify QNSANNNSDDEDVDDEE [IRR1] by its protein stability index
Solution: upper level

Exercise: # bin lookup: classify YAIIINYTKDNEYYPMC [YCS4] by its protein stability index
Solution: lower level

Exercise: # bin lookup: classify KVLCLAVAVGNVEMEED [RPL1A] by its protein stability index
Solution: lower level

Exercise: # bin lookup: classify SSVMSSPRVEKRSFSST [YOR098C/NUP1] by its protein stability index
Solution: middle level

---

Assay: protein stability index of a GFP-peptide fusion (yeast GPS) (PSI 1-4); higher = more stable; sorted into four equal gates, so the index is relative within each strain
Details: san1∆
Attribute measured: protein stability index
# respond with the number and nothing more

# example entries with known answers
NTVDGDLLKLVHLSNGY [FAS1]
2.31
LLIISCIIFITFEFINI [YML031W/NDC1]
1.28
NEGVPSPMLSISNLTQE [FAS1]
2.96
NLRLLNSIDSTSRIELE [ECM29]
2.92
SIGRTAQGKEFGVTKAR [RPL17A]
3.05

Entry WGGFPLDISVFLLEKAG [TAF14] — recorded protein stability index = 3.26

Entry LSVDDIRGAVGNSEAIP [RTT102] — recorded protein stability index = 3.3

---

Experiment: protein stability index of a GFP-peptide fusion (yeast GPS) (PSI 1-4); higher = more stable; sorted into four equal gates, so the index is relative within each strain
Details: pdr5∆
Overview of reported protein stability index across a group of sequences:
# respond with the number and nothing more

LAPARVRRRFARGMTSK [RPS15]
3.17
RCFENLQNKSFKSVLPI [UBP6]
1.98
RKVSGPRALQPSQFGML [RET1]
1.67
PSKSQTNFKEEITDASL [YML103C/NUP188]
3.13
SFTSQGTISIQLKNGLL [MTR3]
2.67
DELSSKELVECHLYSQR [NNF1]
2.33
KNIQSKDSYINANTIET [FAS2]
2.88
LLDAGCKVVAEMIRGRS [SKP1]
2.06
SAIRQVFERFKTKILEV [IRR1]
2.03
QLGYIENSFYKKEASKT [POP1]
2.43

Entry TQNSRHYMVHEALNLLK [LIN1] — recorded protein stability index = 2.98

Entry SKDLRSVWKPIAAIIGR [IRR1] — recorded protein stability index = 2.15

Entry AHRVRDLMDEELRKHAQ [SKI6] — recorded protein stability index = 3.39

Entry NSNSNQQSTDADEDDED [RPT1] — recorded protein stability index = 2.34

Entry IVFDNTDKSNSPIGFTN [SMC2] — recorded protein stability index = 3.15

---

Overview of reported protein stability index across a group of sequences:
Assay: protein stability index of a GFP-peptide fusion (yeast GPS) (PSI 1-4); higher = more stable; sorted into four equal gates, so the index is relative within each strain
Settings: doa10∆
# respond with the number and nothing more

Entry ADRNDDDEGSFAQENSE [SRB6] — recorded protein stability index = 3.08

---

Overview of reported protein stability index across a group of sequences:
Experiment: protein stability index of a GFP-peptide fusion (yeast GPS) (PSI 1-4); higher = more stable; sorted into four equal gates, so the index is relative within each strain
Conditions: pdr5∆
# respond with the number and nothing more

# example entries with known answers
ADRNDDDEGSFAQENSE [SRB6]
3.22
RNILHNTVPQVTNFNST [SRB5]
2.87
ITHQLNNKFANKIIPNV [RPC25]
3.03
ITYGIIKVPTYIRKLIS [SRB8]
1.44
GGDVVKFQKLLQNSERD [SMC4]
3.11

Entry SEAEYSKDIETLKKEWL [YIL149C/MLP2] — recorded protein stability index = 3.04

Entry LAALNVWYGLSDGEDGH [SSN2] — recorded protein stability index = 3.39

Entry SLTRDFEQCCKEKKELQ [YIL149C/MLP2] — recorded protein stability index = 3.01

Entry SIRAEAVAASSTKTGTP [POP1] — recorded protein stability index = 3.21

Entry NLPEEERKQIHEFKLIV [GRR1] — recorded protein stability index = 3.35

Entry DYTLQDIICEDSTLILE [RPB2] — recorded protein stability index = 2.64

Entry ITSFDQDVDDAHAIDQM [POP8] — recorded protein stability index = 1.23

Entry LLEGLNEKIEKRSDLTG [UBP6] — recorded protein stability index = 3.11

Entry SSFSLTFFPRCIIAVSC [POP1] — recorded protein stability index = 1.86

Entry RSWNEPSKSQTNFKEEI [YML103C/NUP188] — recorded protein stability index = 2.98

Entry YNTNFNLLLRELNVEKL [SRP72] — recorded protein stability index = 3.18

---

Experiment: protein stability index of a GFP-peptide fusion (yeast GPS) (PSI 1-4); higher = more stable; sorted into four equal gates, so the index is relative within each strain
Details: doa10∆
Attribute measured: protein stability index
# respond with the number and nothing more

VDNDNWVYKTKGDGMTS [RPN1]
3.12
NEDMVRRANFYKENEAM [SNF12]
3.33
CNERVPLSVATELMNRS [SRP72]
2.43
NRTVLLKIFKIFCIDLE [SRB8]
1.94
QLSNWQKIRNSEGISEA [ITC1]
2.94
ISHIEKRIESLQKDLQR [SMC1]
1.86
CLGIKDEEMLTSCTIPK [GAL11]
2.75
PNNSRDDYKDLTCSLYE [IRR1]
3.11
ISSSTQCLRFLKETVIP [POP6]
1.52
WDLLQSGSQNISEFDSF [RPN12]
3.38

Entry DESDTISFRSNLLKNFI [SNF6] — recorded protein stability index = 2.04

Entry KNGKIYLKHNSIAEEIP [RET1] — recorded protein stability index = 2.97

Entry NGDNLYGNDEEVLFYED [RPN4] — recorded protein stability index = 3.07

---

Assay: protein stability index of a GFP-peptide fusion (yeast GPS) (PSI 1-4); higher = more stable; sorted into four equal gates, so the index is relative within each strain
Settings: doa10∆
Attribute measured: protein stability index
# respond with the number and nothing more

# example entries with known answers
AYNKKSTISAREIQTAV [HTB1]
2.5
KDENNTANDQYSSILGN [YCG1]
3.02
YHGNECEINYYEILLKI [SRB8]
1.66
KSLGVKSLGGGAALKDI [FAS2]
3

Below: the item to evaluate.
Entry LFPIVKKHGKTDYFLPK [YJL039C/NUP192] — recorded protein stability index = 2.46

---

Assay: protein stability index of a GFP-peptide fusion (yeast GPS) (PSI 1-4); higher = more stable; sorted into four equal gates, so the index is relative within each strain
Details: ubr1∆
Class class 1: protein stability index at least 3. Class class 0: protein stability index below 3.

Exercise: Confirm if protein stability index reported for the sequence REGSSARTIKATLPYIK [RPB2] is 3 or above.
Solution: class 0

Exercise: Confirm if protein stability index reported for the sequence SFLMRQFTRFFLLVPSK [ECM29] is 3 or above.
Solution: class 0
